Each recorded value in this set is attributed to patent US8163795B2.

System: A2780 (Ovarian)
Assay: Proliferation assay (MTT)
Assay type: cell-based
Conditions: Table 2.1
RECORDED_METRIC: pIC50
Scale for pIC50: -log10 of concentration given in mol/L; no unit attached.

Query block: Please look up its pIC50: N.N.[Cl][Pt][Cl] [Cisplatin, cisplatin, reference compound]
Result block: 5.68

---

Assay: HMC pharmacokinetics i.v. and i.p., mice
Format: in vivo, female BALB/c mice
Conditions: female, BALB/c, mouse, serum, iv, 50 mg/kg, 4 hr
RECORDED_METRIC: concentration at 4 hr (nM)
The response must be a number in nM with no trailing unit.

Query block: Please look up its concentration at 4 hr: COc1ccc(C2c3ccc(O)cc3OCC2c2ccc(O)cc2)cc1 (stereo not shown) [Compound 1]
Result block: 70
